Source: the DeepSol protein solubility set

Assay: soluble on expression in E. coli; label from the status in PepcDB or PDB records
Metric Name: soluble on expression in E. coli

Monomer Sequence: MKKIPLGTTDITLSRMGLGTWAIGGGPAWNGDLDRQICIDTILEAHRCGINLIDTAPGYNFGNSEVIVGQALKKLPREQVVVETKCGIVWERKGSLFNKVGDRQLYKNLSPESIREEVAASLQRLGIDYIDIYMTHWQSVPPFFTPIAETVAVLNELKSEGKIRAIGAANVDADHIREYLQYGELDIIQAKYSILDRAMENELLPLCRDNGIVVQVYSPLEQGLLTGTITRDYVPGGARANKVWFQRENMLKVIDMLEQWQPLCARYQCTIPTLALAWILKQSDLISILSGATAPEQVRENVAALNINLSDADATLMREMAEALER
soluble on expression in E. coli: soluble
--
Monomer Sequence: MGSDKIHHHHHHMKVLDVIKQIQQAIVYIEDRLLEPFNLQELSDYVGLSPYHLDQSFKMIVGQSPEEYARARKMTIAANDVVNGASRLMDVAKKYRYANSNDFANDFSDFHGISPIQATTKKDELKIQQRLYIKLSTTENAPYTYRLQETDDISLVGYSRFIPTEQLSNPFNIPDFLEDLLVDGYIKELKRYNDTSPYELFVVSCPLEQGLEIFVGVPSERYPSHLESRFLPGRHYALFNLQGEIDYATNEAWYYIESSLQLTLPYERNSLYVEIYPLDISFNDPFTKIQLWLPIKQEIYDLDEGYQN
soluble on expression in E. coli: not soluble
--
Monomer Sequence: MPNTADQVDPLLASLSHFVDHTDLLAEHTMNAVEWEAVEVLMPRILRGKSKEDVKQLLLAEIDGMSKKRLDAVLAGETLEESSSSEDEEEQVIGSAGESEKSESPEIPEPEAKMEEQAVEAAEASEASDDGREDGEIRDDQGNTTSTPPDPGSPKSPEKGEAEQLDTDEEIDRLLEEDLEDFL
soluble on expression in E. coli: soluble
--
Monomer Sequence: MKIEEVRFGLVKIDGKEFDHDIVIYPSGRIERRMKEISKKKHGTSHKLDPEELEKYLVEDFDVLLVGTGIYGMLSLLPESKKLVEDKEVIEKPTKEALKLLEELWGKKRILAIIHVTC
soluble on expression in E. coli: soluble
--
Monomer Sequence: GPLGSGALKWVLCNYDFQARNSSELSVKQRDVLEVLDDSRKWWKVRDPAGQEGYVPYNILTPYPAAAS
soluble on expression in E. coli: soluble
--
Monomer Sequence: MGSDKIHHHHHHMGEELPVSQPVDQRPLEHQDHCQAAEPAAMDPPAGEDFYEKDFITYLSDENEQEISRAFIVANPGMVKFHFVDKVYEQLALKDKQVDTAIYSEVLPDPPLSQAIKIAKQMKKFAPDTIIAIGGGSALDVSKIARYIYEYSLDQEDGWLDIYDNVSELIKELQQKFVDIRKRIVKFKHETRTSLVMTRSLKAPS
soluble on expression in E. coli: not soluble

Briefly, soluble on expression in E. coli measured for MGSDKIHHHHHHMINHHPKFELIQAFVNGDLPASLSAGIAIHADMCPVCQQTIAQFTEQVAENSFEEEYLDRFIIDDNEALEAIATIDFDHMIDNIVESSDIAVVVPKVEKTVSFNDTTYTLPAALNSMEMGKHAQIGKLTRARIQLNENEIHSSLLHIQPGGGVPEHTHKGFELTVLLAGSFHDESGEYVKGDFIMLDSSHQHHPISSNGCLCYTVANDALHFTHGINKLLNPIGSFIY : not soluble

Briefly, soluble on expression in E. coli measured for MGSDKIHHHHHHMSDEGRHKPTSAPNRVFMMKGMDKLRYQQDFLNIRPIFTAGEQEYLTGLSDRLPLSVLTGSVRNIEEIGIDFVYSSAKLEGNTYNQYDTQALLKLGQTAGGKLYSDAVMLINLRESYRHLLSGLDSPEPFDWLDFLKTTHSLISENLLEKGSGGVVRRDSVTISGTDYTPLSNPQSLDTELKWLLQEAPKIENPFDRAVYLHNNLAYLQYFKDCNKRTARNCMTLSLMRSGFFPCVFSPDSYPAYAEAVVAYYETGDYGLFKKYFISAYENTVNKYGPQPDMDIFRNFSL : not soluble

Briefly, soluble on expression in E. coli measured for MSLKKKTTLSEEDQALFRQLMAGTRKIKQDTIVHRPQRKKISEVPVKRLIQEQADASHYFSDEFQPLLNTEGPVKYVRPDVSHFEAKKLRRGDYSPELFLDLHGLTQLQAKQELGALIAACRREHVFCACVMHGHGKHILKQQTPLWLAQHPHVMAFHQAPKEYGGDAALLVLIEVEEWLPPEGHHHHHH : soluble

Briefly, soluble on expression in E. coli measured for MKILPLALFIIPFLAGCGANNTPPQTPIPGEKTSAKLRTLETGAAAIQSRPPVDAISTYLDGFHFYSGDKNGQMEAHHYVTVLNEDVMQAVIYDGNTKNARLMGVEYIISERLFKTLPPEEKKLWHSHQYEVKSGSLVAPGLPQVADKALMSKIVNTYGKTWHTWHTDRDKTLPMGIPALMMGFTGDGQLDPALLADRDRRLGIDTQAIKRERQDLPEHPVVKGANAWEQGEVIQLQRVQGSGEHGRGDTAHFGTSEQSRQ : not soluble

Briefly, soluble on expression in E. coli measured for MSLSFTGLEGTRVLVADDNFTSRAILKEVLESLRFDVTLAESGEEAVDLVQKTAEPFKVVLLDWRMPGLDGLACARHIRQLDLPVRPTILIITAYGREEVLGEIPSEIIDGVLLKPVARSLLLNTILDALPEYSSRPEQESRIIQIDTAQLRQELADTSVLVVEDNKINRQIAKELLEGVGVRVTLAGDGLEALALVENYDFDLIFMDIQMPRMDGLEACRRIRQLQHKKQPPVVAMTAHALAGDRETSLRAGMNDHITKPIDPDELYAALANWIKRNHAEGHHHHHH : soluble

Briefly, soluble on expression in E. coli measured for MGSDKIHHHHHHMKKAVLIVNPSSGGEKAKEFETLAEEKLKQLFDEVVVKQTEKGGDAEQFAREAAESHFDSVFVMGGDGTVNEGISGLAEQAYRPKFGFFPLGTVNDLARALNLPMDPEEAIQQLDLEKTSALDVGKINDDYFMNVVAIGTIPESINDVDVEQKTKLGKLAYFISGAKHLANAQTYPFHLSLDQKEQTIESSTVLVGLTNSIGGFETLLPEAQVDDGKLHLVYLKDQSLWDAVKAVPDLLKGVDQSTDNLVYLTFKEGTISLENQEELTTNVDGDEGAALPITLKILPKHLTVYCGEEQTK : not soluble
